Some sequences, each annotated with its measured shrunken log2 fold change.
Test system: Escherichia coli TOP10
test_method_notes: shrunken log2 fold change of peptide-encoding DNA abundance (4.5 h post-induction vs induction); higher = less antimicrobial activity (less host growth inhibition)
measurement_parameters: time post-induction: 4.5 h; library: site-saturation at positions 5, 18, 19, 20

Completed entries (count: 5):
residue_sequence: RRIRGRPPRLPRPRPRPEFWPRP
shrunken log2 fold change: 2.24
--
residue_sequence: RRIRIRPPRLPRPRPRPFWQPRP
shrunken log2 fold change: -0.31
--
residue_sequence: RRIRHRPPRLPRPRPRPSEQPRP
shrunken log2 fold change: -0.178
--
residue_sequence: RRIRQRPPRLPRPRPRPVQAPRP
shrunken log2 fold change: -0.0131
--
residue_sequence: RRIRARPPRLPRPRPRPFVWPRP
shrunken log2 fold change: 0.204

Report shrunken log2 fold change for RRIRQRPPRLPRPRPRPDETPRP please.
-0.00179

Report shrunken log2 fold change for RRIRHRPPRLPRPRPRPDWHPRP please.
2.17

Report shrunken log2 fold change for RRIRWRPPRLPRPRPRPAQTPRP please.
0.476

Report shrunken log2 fold change for RRIRGRPPRLPRPRPRPPWSPRP please.
0.76

###

Test system: Escherichia coli TOP10
test_method_notes: shrunken log2 fold change of peptide-encoding DNA abundance (4.5 h post-induction vs induction); higher = less antimicrobial activity (less host growth inhibition)
measurement_parameters: time post-induction: 4.5 h; library: site-saturation at positions 5, 18, 19, 20
Some sequences, each annotated with its measured shrunken log2 fold change.
The response must contain the number and no unit.

Completed entries (count: 3):
residue_sequence: RRIRSRPPRLPRPRPRPQAYPRP
quantitative_readout: 0.0251
//
residue_sequence: RRIRGRPPRLPRPRPRPFLTPRP
quantitative_readout: 0.0427
//
residue_sequence: RRIRTRPPRLPRPRPRPLKEPRP
quantitative_readout: 0.825

Report shrunken log2 fold change for RRIRDRPPRLPRPRPRPQKHPRP please.
-0.108

Report shrunken log2 fold change for RRIRHRPPRLPRPRPRPTLEPRP please.
0.319

Report shrunken log2 fold change for RRIRSRPPRLPRPRPRPGACPRP please.
0.0577

Report shrunken log2 fold change for RRIRSRPPRLPRPRPRPMHDPRP please.
-0.314

Report shrunken log2 fold change for RRIRTRPPRLPRPRPRPGPTPRP please.
0.455

###

Tested on: Escherichia coli TOP10
test_method_notes: shrunken log2 fold change of peptide-encoding DNA abundance (4.5 h post-induction vs induction); higher = less antimicrobial activity (less host growth inhibition)
measurement_parameters: time post-induction: 4.5 h; library: site-saturation at positions 5, 18, 19, 20
measured_quantity: shrunken log2 fold change
The response must contain the number and no unit.

residue_sequence: RRIRSRPPRLPRPRPRPGSPPRP
measured_target: Escherichia coli TOP10
quantitative_readout: 0.106
--
residue_sequence: RRIRVRPPRLPRPRPRPPDNPRP
measured_target: Escherichia coli TOP10
quantitative_readout: -0.00642
--
residue_sequence: RRIRQRPPRLPRPRPRPPMQPRP
measured_target: Escherichia coli TOP10
quantitative_readout: -0.055
--
residue_sequence: RRIRFRPPRLPRPRPRPPSQPRP
measured_target: Escherichia coli TOP10;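 note: peptides expressed intracellularly from a pBAD plasmid library in pooled LB shake-flask culture, induced with 0.3% L-arabinose, DNA abundance read by NGS, three biological replicates, DESeq2 with apeglm shrinkage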
quantitative_readout: -0.0751

Report shrunken log2 fold change for RRIRQRPPRLPRPRPRPKLHPRP please.
-0.201

Report shrunken log2 fold change for RRIRHRPPRLPRPRPRPTMKPRP please.
-0.585

Report shrunken log2 fold change for RRIRCRPPRLPRPRPRPNIVPRP please.
-0.34

Report shrunken log2 fold change for RRIRRRPPRLPRPRPRPPHPPRP please.
0.886
